- assay explanation: In vitro cytotoxicity, MTT cell viability assay in HepG2 cells
- Format: cell-based
- assay setup: human, Cytotoxicity CC50
Record form. Attribute: CC50 at 7 days. Fill in for each entry.

Cc1cc(NC(=O)c2ccc(F)c(C(F)(F)C(=O)NC34CC5CC(CC(O)(C5)C3)C4)c2)ccc1F :: 5 to 30 µM
O=C(Nc1ccc(F)c(Br)c1)c1ccc(Cl)c(C(F)(F)C(=O)N2CCC(O)CC2)c1 :: 5 to 30 µM
Cc1cc(NC(=O)c2cc(C(F)(F)C(=O)N3CCC(B(O)O)CC3)n(C)c2)ccc1F :: > 30 µM
Cc1cc(NC(=O)c2cc(C(F)(F)C(=O)N3CCC(O)CC3)ccc2Cl)ccc1F :: > 30 µM
Cc1cc(NC(=O)c2ccc(F)c(C(F)(F)C(=O)N3C4CC[C@@H]3C[C@@H](C(=O)O)C4)c2)ccc1F :: > 30 µM
Cn1cc(NC(=O)c2ccc(F)c(C(F)(F)C(=O)N3CCC(O)CC3)c2)cn1 :: 5 to 30 µM

Quick one: give me CC50 at 7 days for each item below, same order please.
1. Cc1cc(NC(=O)c2cc(C(F)(F)C(=O)N3CCC(O)CC3)ccc2F)ccc1F
2. Cc1cc(NC(=O)c2ccc(F)c(C(F)(F)C(=O)N3[C@H](C)CN(S(C)(=O)=O)C[C@@H]3C)c2)ccc1F
3. Cc1cc(NC(=O)c2ccc(F)c(C(F)(F)C(=O)N3CCC(O)C(F)(F)C3)c2)cc(F)n1 (stereo not shown)
4. Cc1cc(NC(=O)c2ccc([N+](=O)[O-])c(C(F)(F)C(=O)N3CCC(O)CC3)c2)ccc1F
5. Cc1cc(NC(=O)c2cc(Br)c(C(F)(F)C(=O)N3CCC(O)CC3)n2C)ccc1F

Ans:
1. 5 to 30 µM
2. 5 to 30 µM
3. 5 to 30 µM
4. 5 to 30 µM
5. > 30 µM

###

What CC50 was measured for each of the following?
- Test system: HepG2 cells
- assay explanation: In vitro cytotoxicity, MTT cell viability assay in HepG2 cells
- Type: cell-based
- assay setup: human, 7 days
- Procedure: To evaluate antiviral selectivity, the cytotoxic activity of each compound was determined using a standard cell viability assay performed on the parental HepG2 cell line. Cell viability was determined by measuring the conversion of 3-(4,5-dimethylthiazol-2-yl)-2,5-diphenyltetrazolium bromide (MTT) to the insoluble formazan salt crystal that occurs in live cells. […] All absorbance values were converted to a percentage of the signal obtained from the vehicle treated controls. […]

N#Cc1cc(NC(=O)c2ccc(F)c(C(F)(F)C(=O)N3[C@@H]4CC[C@H]3C[C@@H](O)C4)c2)ccc1F [Example 178] :: > 30 µM
N#Cc1cc(NC(=O)c2ccc(F)c(C(F)(F)C(=O)N3CCC(O)C(F)(F)C3)c2)ccc1F (stereo not shown) :: 5 to 30 µM
Cc1cc(NC(=O)c2ccc(F)c(C(F)(F)C(=O)N3C4CCC3CC(O)(CO)C4)c2)ccc1F (single isomer, unassigned; isomer 2) [Example 275] :: > 30 µM
N#Cc1cc(NC(=O)c2ccc(F)c(C(F)(F)C(=O)N3[C@@H]4CC[C@H]3C[C@@H](O)C4)c2)ccc1F [Example 192] :: 5 to 30 µM
Cc1cc(NC(=O)c2ccc(F)c(C(F)(F)C(=O)N3C4CCC3CC(O)(CO)C4)c2)ccc1F (single isomer, unassigned; isomer 1) [Example 274] :: < 5 µM
O=C(Nc1ccc(F)c(F)c1)c1ccc(F)c(C(F)(F)C(=O)NC2CCC(O)CC2)c1 (stereo not shown) :: 5 to 30 µM

Q: Assign CC50 to the following record: Cc1cc(NC(=O)c2c(C)c(C(O)(C(=O)NC(C)(C)C)C(F)(F)F)c(C)n2C)ccc1F (stereo not shown)
Ans: 5 to 30 µM
